# test-target: T1, human IgE (human, UniProt P01854 1-428)
# T1 construct: written under the same molecule; also called IgE (Abcam ab65866); soluble IgE
# T1 sequence (P01854 other isoform, or with tags, fused parts or gaps limits assumed, form in doubt): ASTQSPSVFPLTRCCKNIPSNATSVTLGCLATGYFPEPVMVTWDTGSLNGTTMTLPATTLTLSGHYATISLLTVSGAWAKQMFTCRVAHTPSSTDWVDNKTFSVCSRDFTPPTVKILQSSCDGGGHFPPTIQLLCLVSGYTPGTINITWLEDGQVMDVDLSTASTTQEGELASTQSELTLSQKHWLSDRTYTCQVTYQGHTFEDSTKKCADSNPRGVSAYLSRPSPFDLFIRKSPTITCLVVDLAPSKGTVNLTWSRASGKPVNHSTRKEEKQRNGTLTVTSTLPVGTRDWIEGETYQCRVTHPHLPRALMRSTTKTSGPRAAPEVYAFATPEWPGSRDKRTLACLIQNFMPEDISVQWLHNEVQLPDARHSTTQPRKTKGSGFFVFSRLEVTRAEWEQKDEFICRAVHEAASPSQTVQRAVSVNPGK
# experiment-summary: ELISA, clone lysate on IgE-coated plate
Entries and their R1 Screening OD450
Form rule: numeric answer, no unit written next to it.

- 3-1A1 (VHH, also called hzB10v40 VHH, CDR1 site 3 T to V) VHH: EVQLLESGGGEVQPGGSLRLSCVASGLVFSSYNMGWLRQAPGKEREFVGLSGSSSTSTYYAESVKGRFTISRDNAKNTVYLQMTSLRAEDTAVYYCAARRLLSTYWSDRSWDFWGQGTLVTVEP: 0.896
- 6E11 (VHH, also called hzB10v40 VHH, CDR1 site 6 S to T) VHH: EVQLLESGGGEVQPGGSLRLSCVASGLTFSTYNMGWLRQAPGKEREFVGLSGSSSTSTYYAESVKGRFTISRDNAKNTVYLQMTSLRAEDTAVYYCAARRLLSTYWSDRSWDFWGQGTLVTVEP: 0.817
- 9D1 (VHH, also called hzB10v40 VHH, CDR1 site 9 M to I) VHH: EVQLLESGGGEVQPGGSLRLSCVASGLTFSSYNIGWLRQAPGKEREFVGLSGSSSTSTYYAESVKGRFTISRDNAKNTVYLQMTSLRAEDTAVYYCAARRLLSTYWSDRSWDFWGQGTLVTVEP: 0.905

Which R1 Screening OD450 is reported for this binder? 9G9 (VHH, also called hzB10v40 VHH, CDR1 site 9 M to T) VHH: EVQLLESGGGEVQPGGSLRLSCVASGLTFSSYNTGWLRQAPGKEREFVGLSGSSSTSTYYAESVKGRFTISRDNAKNTVYLQMTSLRAEDTAVYYCAARRLLSTYWSDRSWDFWGQGTLVTVEP
0.886
